Values were extracted from patent US20240247080A1.

So I've got a bunch of binders here, and I need their EC50 hNPY2R 100% hP (CreLuc) values.
Target: T1, NPY2 receptor (human (printed as hNPY2R), UniProt P49146 1-381)
T1 sequence (looked up): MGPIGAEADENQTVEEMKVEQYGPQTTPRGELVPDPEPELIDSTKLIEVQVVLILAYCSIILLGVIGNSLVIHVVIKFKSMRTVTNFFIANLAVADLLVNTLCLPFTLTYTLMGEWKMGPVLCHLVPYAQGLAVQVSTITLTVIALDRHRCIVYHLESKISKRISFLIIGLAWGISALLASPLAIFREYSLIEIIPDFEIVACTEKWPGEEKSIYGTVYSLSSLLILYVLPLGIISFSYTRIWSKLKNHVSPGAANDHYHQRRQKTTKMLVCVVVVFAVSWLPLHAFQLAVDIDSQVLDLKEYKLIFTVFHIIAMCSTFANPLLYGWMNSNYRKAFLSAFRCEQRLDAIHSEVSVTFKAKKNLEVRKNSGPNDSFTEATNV
Experiment: cell-based or functional assay
Starred links: 1 amine or outer side, 2 acyl side, 3 side chain; linkers in the order of their positions; H or OH if unused. Non-standard residues stand in square brackets, D forms with d. Groups on a side chain read outwards from the residue. No end group written: not given here. *: point of attachment. C20 diacid = O=C(O)CCCCCCCCCCCCCCCCCCC(=O)*; C18 diacid = O=C(O)CCCCCCCCCCCCCCCCC(=O)*; γGlu = O=C(O)[C@H](CCC(=O)[*:2])N[*:1]; εLys = N[C@@H](CCCCN[*:1])C(=O)[*:2]; AEEA = NCCOCCOCC(=O)O; Aib = CC(C)(N)C(=O)O
Answers are plain numbers, in nM.

# BINDER, DISPLAY_UNIT, OBSERVED_RESULT
records = [
    ("Y[Aib]EGTFTSDYSI[Aib]LEKQAQ[Aib]AFVQWLIK([εLys-γGlu-γGlu-γGlu-γGlu-γGlu-C20 diacid])GGPSEYASLRHYYNWLTRQRY-NH2 (also: TFA salt) [Compound 189]", "nM", 45.8),
    ("Y[Aib]EGTFTSDYSI[Aib]LEKQAQ[Aib]AFVEWLIK([εLys-γGlu-γGlu-γGlu-γGlu-γGlu-γGlu-γGlu-C20 diacid])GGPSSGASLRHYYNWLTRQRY-NH2 (also: TFA salt) [Compound 225]", "nM", 50.2),
    ("Y[Aib]EGTFTSDYSI[Aib]LEKQAQ[Aib]AFIEWLIKGGPSEGASLRHYYNWLTRQRY-NH2 (not fully specified (residue 28); also: TFA salt) [Compound 258]", "nM", 72),
    ("Y[Aib]EGTFTSDYSI[Aib]LEEQAQ[Aib]AFVEWLIK([εLys-γGlu-γGlu-γGlu-γGlu-γGlu-C20 diacid])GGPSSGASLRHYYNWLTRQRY-NH2 (also: TFA salt) [Compound 181]", "nM", 102),
    ("Y[Aib]EGTFTSDYSI[Aib]LEKQAQ[Aib]EFVQWLIK([Glu-Glu-Glu-Glu-Glu-Glu-C18 diacid])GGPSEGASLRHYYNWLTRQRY-NH2 (also: TFA salt) [Compound 179]", "nM", 111),
    ("Y[Aib]EGTFTSDYSI[Aib]LEKQAQ[Aib]AFVQWLIK([εLys-γGlu-γGlu-γGlu-γGlu-γGlu-γGlu-γGlu-C20 diacid])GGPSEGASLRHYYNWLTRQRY-NH2 (also: TFA salt) [Compound 224]", "nM", 31.6),
    ("Y[Aib]EGTFTSDYSI[Aib]LEKQAE[Aib]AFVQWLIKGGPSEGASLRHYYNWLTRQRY-NH2 (not fully specified (residue 28); also: TFA salt) [Compound 174]", "nM", 39.2),
    ("Y[Aib]EGTFTSDYSI[Aib]LEKQAQ[Aib]AFVEWLIK([AEEA-AEEA-γGlu-γGlu-γGlu-C18 diacid])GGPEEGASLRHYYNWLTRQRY-NH2 (also: TFA salt) [Compound 248]", "nM", 48.4),
    ("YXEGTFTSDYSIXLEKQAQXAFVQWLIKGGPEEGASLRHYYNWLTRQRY (Aib at 2, 13, 20; K28 side chain carries C18DA-E-E-E-E-E-E-eLys (SEQ ID NO: 643); C-terminal amide) [Compound 196]", "nM", 152),
    ("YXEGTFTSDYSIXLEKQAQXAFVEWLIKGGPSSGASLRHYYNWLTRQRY (Aib at 2, 13, 20; K28 side chain carries C20DA-gGlu-gGlu-gGlu-gGlu-gGlu-OEG-OEG; C-terminal amide) [Compound 229]", "nM", 27.2),
]

Dear reader, for each entry below, please note its EC50 hNPY2R 100% hP (CreLuc).
1. Y[Aib]EGTFTSDYSI[Aib]LEKQAE[Aib]AFVQWLIK([AEEA-AEEA-γGlu-γGlu-γGlu-γGlu-C20 diacid])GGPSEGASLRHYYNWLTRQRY-NH2 (also: TFA salt) [Compound 219]
2. YXEGTFTSDYSIXLEKQAQXAFVEWLIKGGPSEGVSLRHYYNWLTRQRY (Aib at 2, 13, 20; K28 side chain carries C20DA-gGlu-gGlu-gGlu-gGlu-gGlu-gGlu-eLys; C-terminal amide) [Compound 241]
3. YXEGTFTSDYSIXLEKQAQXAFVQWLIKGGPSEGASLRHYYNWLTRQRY (Aib at 2, 13, 20; K28 side chain carries C18DA-E-E-E-E-E-E-eLys (SEQ ID NO: 643); C-terminal amide) [Compound 249]
4. Y[Aib]EGTFTSDYSI[Aib]LEKQAQ[Aib]AFVEWLIK([AEEA-AEEA-γGlu-γGlu-γGlu-γGlu-C20 diacid])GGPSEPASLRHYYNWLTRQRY-NH2 (also: TFA salt) [Compound 226]
5. YXEGTFTSDYSIXLEKQAQXAFVEWLIKGGPSTGASLRHYYNWLTRQRY (Aib at 2, 13, 20; K28 side chain carries C20DA-gGlu-gGlu-gGlu-gGlu-gGlu-gGlu-eLys; C-terminal amide) [Compound 244]
6. YXEGTFTSDYSIXLEKQAQRAFVEWLIKGGPSSGASLRHYYNWLTRQRY (Aib at 2, 13; D-Arg at 20; K28 side chain carries C20DA-gGlu-gGlu-gGlu-gGlu-gGlu-gGlu-eLys; C-terminal amide) [Compound 216]
7. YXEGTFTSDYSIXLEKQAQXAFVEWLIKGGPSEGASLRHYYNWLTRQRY (Aib at 2, 13, 20; NMeR (N-methyl-L-arginine) at 48; K28 side chain carries C20DA-gGlu-gGlu-gGlu-gGlu-gGlu-gGlu-eLys; C-terminal amide) [Compound 236]

stdout:
43.4
34.1
50
46.2
58.3
16.8
86.6
